Target chain: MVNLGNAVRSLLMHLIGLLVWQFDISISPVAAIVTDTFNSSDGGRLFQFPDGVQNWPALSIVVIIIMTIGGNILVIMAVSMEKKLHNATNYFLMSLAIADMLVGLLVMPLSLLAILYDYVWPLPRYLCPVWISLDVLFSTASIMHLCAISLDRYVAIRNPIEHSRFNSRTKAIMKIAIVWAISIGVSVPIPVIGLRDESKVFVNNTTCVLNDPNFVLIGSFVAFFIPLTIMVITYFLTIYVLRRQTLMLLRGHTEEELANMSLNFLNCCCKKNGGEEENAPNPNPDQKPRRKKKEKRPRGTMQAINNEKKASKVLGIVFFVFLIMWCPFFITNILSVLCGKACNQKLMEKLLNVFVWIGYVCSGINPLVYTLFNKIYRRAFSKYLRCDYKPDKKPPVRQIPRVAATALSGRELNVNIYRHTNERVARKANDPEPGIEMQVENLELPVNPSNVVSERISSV
Known Ki of a selection of molecules

# compound.structure, Ki
rows = [
    ("COc1ccc(C(=O)CCCN2CCc3ccccc3C2)cc1", "1400 nM"),
    ("NC(=O)c1ccc(C(=O)CCCN2CCc3ccccc3C2)cc1", "1890 nM"),
]

----------
measurement.target: Sodium-dependent serotonin transporter (Homo sapiens)
Sequence (P31645 whole entry): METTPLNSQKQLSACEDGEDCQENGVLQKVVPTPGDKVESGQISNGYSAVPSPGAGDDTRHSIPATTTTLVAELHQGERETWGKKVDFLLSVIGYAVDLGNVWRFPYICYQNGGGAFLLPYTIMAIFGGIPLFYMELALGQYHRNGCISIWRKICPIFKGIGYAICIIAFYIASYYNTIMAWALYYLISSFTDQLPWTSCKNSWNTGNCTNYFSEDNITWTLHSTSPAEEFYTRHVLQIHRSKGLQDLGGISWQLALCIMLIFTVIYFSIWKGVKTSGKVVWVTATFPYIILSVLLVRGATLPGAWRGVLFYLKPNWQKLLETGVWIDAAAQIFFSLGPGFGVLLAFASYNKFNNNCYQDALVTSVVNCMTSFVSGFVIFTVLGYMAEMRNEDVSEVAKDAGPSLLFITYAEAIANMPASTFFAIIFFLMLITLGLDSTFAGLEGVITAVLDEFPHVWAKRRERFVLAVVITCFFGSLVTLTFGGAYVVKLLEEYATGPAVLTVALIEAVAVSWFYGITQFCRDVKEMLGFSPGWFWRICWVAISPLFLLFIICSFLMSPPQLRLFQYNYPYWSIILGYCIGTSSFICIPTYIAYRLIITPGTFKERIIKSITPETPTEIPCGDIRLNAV
parameter: Ki

# compound, parameter, recorded.result
data = [
    ("O=C1c2ccccc2C(=O)N1CCCCN1CCC2CCCCC2C1 (stereo unspecified)", "Ki", "> 10 µM"),
]
